# tgt: T1, GST-Egl512-819 (Drosophila melanogaster, UniProt Q9W1K4 512-819)
# T1 sequence: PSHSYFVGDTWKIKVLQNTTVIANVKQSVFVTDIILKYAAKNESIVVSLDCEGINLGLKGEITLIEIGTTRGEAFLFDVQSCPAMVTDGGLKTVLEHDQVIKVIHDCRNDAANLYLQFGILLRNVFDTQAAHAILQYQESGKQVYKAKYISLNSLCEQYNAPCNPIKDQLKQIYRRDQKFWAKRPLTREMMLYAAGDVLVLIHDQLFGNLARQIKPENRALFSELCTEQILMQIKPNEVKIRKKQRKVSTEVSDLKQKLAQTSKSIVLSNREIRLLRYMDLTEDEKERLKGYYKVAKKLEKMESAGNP
# measurementProtocol: fluorescence anisotropy; FA: 20 mM HEPES-NaOH pH 7.5, 100 mM NaCl, 10% glycerol, 20 C, 10 nM FAM-RNA; competition: 150 nM Egl512-819 + 10 nM FAM-K10 TLS, same buffer
# settings: protein: recombinant; tags: N-terminal GST (TEV site); label: 5'-6-FAM; hairpin with two bulges
measuredEndpoint: Kd (nM)
One number for each entry, in nM.

Entry under test: CUUGAUUGUAUUUUUAAAUUAAUUCUUAAAAACUACAAAUUAAG (structured_RNA) [K10 TLS (FAM)] . Its Kd was 130
